Give measured Ki for each item. Keep answers brief.
- test details: Binding affinity was measured by its ability to displace [3H]CCK-8S from CCK-B receptor in guinea pig brain
One number for each entry, in µM.

Examples from the recorded data:
Ki reported for this compound CC(C)CCN1C(=O)C(NC(=O)Nc2ccccc2)C(=O)N(c2ccccc2)c2cc(F)ccc21 (stereo not given) : 0.224

Field Ki (entry CC(C)CCN1C(=O)C(NC(=O)Nc2ccccc2)C(=O)N(c2ccccc2)c2cc(Cl)ccc21 (stereo not given) ) reads 0.955

// recorded Ki for CC(C)CCN1C(=O)C(NC(=O)Nc2ccccc2)C(=O)N(c2ccccc2)c2ccc(Cl)cc21 (stereo not given) : 0.955

In the following, a different compound is considered.
GET /value?item= CC(C)CCN1C(=O)C(NC(=O)Nc2ccccc2)C(=O)N(c2ccccc2)c2cc(Cl)c(Cl)cc21 (stereo not given) &field=Ki returns 1.58
